- System Name: human CYP11B1 (Homo sapiens)
- Construct: The expression plasmids contains the ORF for either human/cyno CYP11B1 or CYP11B2
- Sequence (P15538 25-503): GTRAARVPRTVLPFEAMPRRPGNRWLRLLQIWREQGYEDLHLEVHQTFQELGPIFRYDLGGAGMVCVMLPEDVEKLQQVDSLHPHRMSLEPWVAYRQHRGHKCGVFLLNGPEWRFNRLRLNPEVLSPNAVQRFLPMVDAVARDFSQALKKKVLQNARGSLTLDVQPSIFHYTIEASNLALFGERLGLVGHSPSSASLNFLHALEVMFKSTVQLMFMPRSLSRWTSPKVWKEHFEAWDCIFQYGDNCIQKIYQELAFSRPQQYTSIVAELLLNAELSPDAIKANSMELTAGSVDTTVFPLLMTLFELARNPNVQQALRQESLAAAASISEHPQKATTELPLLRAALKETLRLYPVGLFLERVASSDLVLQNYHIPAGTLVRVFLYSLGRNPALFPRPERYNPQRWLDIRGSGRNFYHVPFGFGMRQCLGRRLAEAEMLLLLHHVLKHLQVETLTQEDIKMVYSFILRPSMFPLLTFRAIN
- Experiment: G-402 cellular enzyme assay, human CYP11B1 (cortisol release, HTRF)
- Measurement Context: G-402 cells expressing human CYP11B1; 1 μM Deoxycortisol
Here, each record is paired with measured EC50 data.
Reported Property: EC50 (nM)

- CCS(=O)(=O)N1CCC(F)(c2cncc(N3C(=O)c4ccc(Cl)cc4C3(C)C)c2)CC1: 153
- CCS(=O)(=O)N1CCC(c2cncc(N3Cc4cc(Cl)ccc4C3=O)c2)CC1: 1050
- CCS(=O)(=O)N1CC(c2cncc(N3C(=O)c4ccc(Cl)cc4C3(C)C)c2)C1: 616
- COc1ccc2c(n1)C(C)(C)N(c1cncc(C3(F)CCN(C(=O)c4cnn(C)c4)CC3)c1)C2=O: 986
- CC(C)S(=O)(=O)N1CCC(c2cncc(N3C(=O)c4ccc(Cl)cc4C3(C)C)c2)C1 (single isomer, unassigned; (-)) [Example 11]: 601
- CCCS(=O)(=O)N1CCC(c2cncc(N3C(=O)c4ccc(Cl)cc4C3(C)C)c2)C1 (single isomer, unassigned; (-)) [Example 9]: 800
- CCS(=O)(=O)N1CCC(c2cncc(N3C(=O)c4ccc(Cl)cc4C3(C)C)c2)CC1: 290
- CCS(=O)(=O)N1CCC(c2cncc(N3C(=O)c4ccc(Cl)cc4[C@@H]3C)c2)CC1 (single isomer, unassigned): 107
- COc1ccc2c(n1)C(C)(C)N(c1cncc(C3CCN(C(=O)c4cnn(C)c4)CC3)c1)C2=O: 573
- Cc1ccncc1C(=O)N1CC(c2cncc(N3C(=O)c4ccc(Cl)cc4C3(C)C)c2)C1: 1400
- CC(C)S(=O)(=O)N1CCC(F)(c2cncc(N3C(=O)c4ccc(Cl)cc4C3(C)C)c2)CC1: 772
- Cc1ccncc1C(=O)N1CCC(c2cncc(N3C(=O)c4ccc(Cl)cc4[C@H]3C)c2)CC1 (single isomer, unassigned): 167

====

- System Name: human CYP11B2 (Homo sapiens)
- Construct: The expression plasmids contains the ORF for either human/cyno CYP11B1 or CYP11B2
- Sequence (P19099 25-503): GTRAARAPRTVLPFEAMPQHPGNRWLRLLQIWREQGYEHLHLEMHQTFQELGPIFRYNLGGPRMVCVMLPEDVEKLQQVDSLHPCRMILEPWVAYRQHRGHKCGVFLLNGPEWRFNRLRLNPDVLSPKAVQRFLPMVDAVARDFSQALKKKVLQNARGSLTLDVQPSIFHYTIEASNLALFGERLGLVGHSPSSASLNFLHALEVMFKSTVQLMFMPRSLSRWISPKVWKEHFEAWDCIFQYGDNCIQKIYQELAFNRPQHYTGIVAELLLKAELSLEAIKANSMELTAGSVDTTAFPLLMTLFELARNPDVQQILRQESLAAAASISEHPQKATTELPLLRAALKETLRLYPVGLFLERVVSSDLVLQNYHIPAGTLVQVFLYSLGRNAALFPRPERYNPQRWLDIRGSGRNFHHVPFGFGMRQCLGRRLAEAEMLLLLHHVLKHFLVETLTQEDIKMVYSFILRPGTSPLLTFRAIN
- Experiment: G-402 cellular enzyme assay, human CYP11B2 (aldosterone release, HTRF)
- Measurement Context: G-402 cells expressing human CYP11B2; 1 μM Deoxycorticosterone
Reported Property: EC50 (nM)

* COc1ccc2c(n1)C(C)(C)N(c1cncc(C3CCN(C(=O)c4cnccc4C)CC3)c1)C2=O | 151
* CCCS(=O)(=O)N1CCC(c2cncc(N3C(=O)c4ccc(Cl)cc4C3(C)C)c2)C1 (single isomer, unassigned; (-)) [Example 9] | 14
* CC(C)S(=O)(=O)N1CCC(c2cncc(N3C(=O)c4ccc(Cl)cc4C3(C)C)c2)C1 (single isomer, unassigned; (-)) [Example 11] | 7
